B1: HESX1 (parent)
chain: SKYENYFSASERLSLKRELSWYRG

- Variants of: B1
- PROCEDURE_DETAILS: protein stability index of a GFP-peptide fusion (GPS, HEK-293T) (PSI 1-6); higher = more stable;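 further: lentivirally expressed fusions sorted by FACS into six bins by GFP to DsRed ratio, PSI derived from sequencing read proportions per bin multiplied by bin number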
- DETAILS: c terminus: a fixed tail appended
Listing: protein stability index of selected variants
Enter the number alone.

change=R12F metric="protein stability index" value_measured=1.55
change=L15Y metric="protein stability index" value_measured=2.13
change=L13E metric="protein stability index" value_measured=2.3
change=K16L metric="protein stability index" value_measured=2.21
change=E11A metric="protein stability index" value_measured=1.57

Input line: Quick check: protein stability index of R12L ?
Output line: 2.03

Input line: Quick check: protein stability index of R12H ?
Output line: 2.65

Input line: Quick check: protein stability index of A9N ?
Output line: 2.86

Input line: Quick check: protein stability index of S20K ?
Output line: 1.58

Input line: Quick check: protein stability index of S10M ?
Output line: 1.86

Input line: Quick check: protein stability index of A9M ?
Output line: 2.15
